Where do the numbers come from? From ChEMBL document CHEMBL4673229.

Tested on: HeLa
Experiment: Cytotoxicity against human HeLa cells assessed as reduction in cell viability incubated for 72 hrs by CCK8 assay
Type: cell-based
Positions of bridges follow the written chain, without caps; N, C: chain ends. Non-standard residues stand in square brackets, D forms with d. Residues, ends and D or L forms follow the SMILES beside them. *: point of attachment. NMeY = CN[C@@H](Cc1ccc(O)cc1)C(=O)O; Propionyl = CCC(=O)*
outcome measure: IC50

Please look up its IC50: CCC(=O)N[C@@H]1C(=O)N[C@@H](C(C)C)C(=O)N2CCC[C@H]2C(=O)N[C@@H](C(C)C)C(=O)N(C)[C@@H](Cc2ccc(O)cc2)C(=O)N[C@@H](Cc2ccc(O)cc2)C(=O)O[C@@H]1C (Propionyl-TVPV[NMeY]Y; ester 1-C)
> 20 µM

Please look up its IC50: CC(=O)N[C@@H]1C(=O)N[C@@H](C(C)C)C(=O)N2CCC[C@H]2C(=O)N[C@H](C(C)C)C(=O)N[C@@H](Cc2ccc(O)cc2)C(=O)N[C@@H](Cc2ccc(O)cc2)C(=O)O[C@@H]1C
> 20 µM

Please look up its IC50: CC(=O)N[C@@H]1C(=O)N[C@@H](C(C)C)C(=O)N2CCC[C@H]2C(=O)N[C@@H](C(C)C)C(=O)N(C)[C@@H](Cc2ccc(O)cc2)C(=O)N[C@@H](Cc2ccc(O)cc2)C(=O)O[C@@H]1C (Ac-TVPV[NMeY]Y; ester 1-C)
> 20 µM

---

Tested on: PC-9
Test: Cytotoxicity against human PC-9 cells assessed as reduction in cell viability incubated for 72 hrs by CCK8 assay
Type: cell-based
Conditions: PC-9, 72 h
pIC50: −log10 of the molar value. Positions of bridges follow the written chain, without caps; N, C: chain ends. Non-standard residues stand in square brackets, D forms with d. Residues, ends and D or L forms follow the SMILES beside them. *: point of attachment. NMeY = CN[C@@H](Cc1ccc(O)cc1)C(=O)O; Propionyl = CCC(=O)*
outcome measure: pIC50

Please look up its pIC50: CC(=O)N[C@@H]1C(=O)N[C@@H](C(C)C)C(=O)N2CCC[C@H]2C(=O)N[C@H](C(C)C)C(=O)N[C@@H](Cc2ccc(O)cc2)C(=O)N[C@@H](Cc2ccc(O)cc2)C(=O)O[C@@H]1C
< 4.70

Please look up its pIC50: CCC(=O)N[C@@H]1C(=O)N[C@@H](C(C)C)C(=O)N2CCC[C@H]2C(=O)N[C@@H](C(C)C)C(=O)N(C)[C@@H](Cc2ccc(O)cc2)C(=O)N[C@@H](Cc2ccc(O)cc2)C(=O)O[C@@H]1C (Propionyl-TVPV[NMeY]Y; ester 1-C)
< 4.70

Please look up its pIC50: CC(=O)N[C@@H]1C(=O)N[C@@H](C(C)C)C(=O)N2CCC[C@H]2C(=O)N[C@@H](C(C)C)C(=O)N(C)[C@@H](Cc2ccc(O)cc2)C(=O)N[C@@H](Cc2ccc(O)cc2)C(=O)O[C@@H]1C (Ac-TVPV[NMeY]Y; ester 1-C)
< 4.70
